- Target or system: human glucagon-like peptide-1 (GLP-1) receptor (human, UniProt P43220 24-463)
- Method: cell-based or functional assay
*1 amine or outer side, *2 acyl side, *3 side chain or, on linkers, in order; H or OH if unused. Where no end group is shown, it is not given here. Side-chain parts run from the residue outwards. [ ]: non-standard residue; d: D form. The star is where a group is joined. αMePhe(2-F) = C[C@](N)(Cc1ccccc1F)C(=O)O; γGlu = O=C(O)[C@H](CCC(=O)[*:2])N[*:1]; C14 diacid = O=C(O)CCCCCCCCCCCCC(=O)*; εLys = N[C@@H](CCCCN[*:1])C(=O)[*:2]; αMeY = C[C@](N)(Cc1ccc(O)cc1)C(=O)O; αMeL = CC(C)C[C@](C)(N)C(=O)O; Orn = NCCC[C@H](N)C(=O)O; Aib = CC(C)(N)C(=O)O
Measured parameter: cAMP Emax

* YXEGTXTSDXSIXLDXKAQXEFIEXLIEGGKSSGAPPPS (Aib2, αMeF(2F)6, 4Pal10, αMeL13, Orn16, K17(Z), Aib20, αMeY25, K31(Z), C-terminal NH2; Z = AEEA2-(γ-Glu)-CO-(CH2)12-CO2H) [Example 158] | 87.2%
* YXEGTXTSDXSIXLDXIAQXKFIXXLIEGGPSSGAPPPSK (Aib2, αMeF(2F)6, 4Pal10, αMeL13, Orn16, Aib20, K21(Z), D-Glu24, αMeY25, K40(Z), C-terminal NH2; Z = AEEA3-(γ-Glu)-CO-(CH2)12-CO2H) [Example 228] | 91.1%
* Y[Aib]EGT[αMePhe(2-F)]TSDV[Aib]I[αMeL]LD[Orn]K([εLys-εLys-γGlu-C14 diacid])AQ[Aib]EFIK([εLys-εLys-γGlu-C14 diacid])[αMeY]LIEGGPSSGAPPPS-NH2 [Example 168] | 93.3%
